# test.details: Biodistribution study in normal FVB mice
# Type: in vivo, mouse
# stated.conditions: FVB, mouse, liver, intravenous; normal mice, 5 min; read-out: liver uptake
attribute.measured: tissue uptake at 5 min (%ID/g)
Numbers only, in %ID/g.

stdin: tissue uptake at 5 min lookup needed for CN(C)c1ccc(/C=C/c2nc3ccc(OCC[18F])cc3s2)cn1 [^18F-AI-182] , thanks.
stdout: 16.3

----------
# test.details: Biodistribution study in normal FVB mice
# Type: in vivo, mouse
# stated.conditions: FVB, mouse, kidney, intravenous; normal mice, 5 min; read-out: kidney uptake
attribute.measured: tissue uptake at 5 min
Could you write the number and then its unit?

stdin: Suppose we examine the compound CN(C)c1ccc(/C=C/c2nc3ccc(OCC[18F])cc3s2)cn1 [^18F-AI-182] ; what tissue uptake at 5 min value has been reported?
stdout: 6.76 %ID/g

----------
# test.details: Biodistribution study in normal FVB mice
# Type: in vivo, mouse
# stated.conditions: FVB, mouse, liver, intravenous; normal mice, 120 min; read-out: liver uptake
attribute.measured: tissue uptake at 120 min (%ID/g)
Numbers only, in %ID/g.

stdin: Recorded tissue uptake at 120 min for CN(C)c1ccc(/C=C/c2nc3ccc(OCC[18F])cc3s2)cn1 [^18F-AI-182] , please?
stdout: 2.71

----------
# test.details: Biodistribution study in normal FVB mice
# Format: in vivo, mouse
# stated.conditions: mouse, brain, intravenous; normal FVB mice, 5 min post tail-vein injection; read-out: brain uptake
attribute.measured: tissue uptake at 5 min (%ID/g)
One number for each entry, in %ID/g.

stdin: Endpoint output: tissue uptake at 5 min of CN(C)c1ccc(/C=C/c2nc3ccc(OCC[18F])cc3s2)cn1 [^18F-AI-182] . Value?
stdout: 7.28

----------
# test.details: Biodistribution study in normal FVB mice
# Type: in vivo, mouse
# stated.conditions: mouse, brain, intravenous; normal FVB mice, 120 min post tail-vein injection; read-out: brain uptake
attribute.measured: tissue uptake at 120 min (%ID/g)
Give bare numbers, in %ID/g.

stdin: Would you kindly share the measured tissue uptake at 120 min for CN(C)c1ccc(/C=C/c2nc3ccc(OCC[18F])cc3s2)cn1 [^18F-AI-182] ?
stdout: 1.54

----------
# test.details: Biodistribution study in normal FVB mice
# Assay type: in vivo, mouse
# stated.conditions: FVB, mouse, kidney, intravenous; normal mice, 120 min; read-out: kidney uptake
attribute.measured: tissue uptake at 120 min (%ID/g)
Give bare numbers, in %ID/g.

stdin: What measured tissue uptake at 120 min goes with CN(C)c1ccc(/C=C/c2nc3ccc(OCC[18F])cc3s2)cn1 [^18F-AI-182] ?
stdout: 1.57
